- Test system: MCF7 breast
- Assay Text: NCI-60 one-dose screen, 48 h
- Study Conditions: 10 µM unless noted
About 83,000 compounds went through this panel and 20% of them were active in at least one assay; those are over-represented in the sample as a whole. Activity calls are given as the source filed them. The calls were made as follows: active = growth percent below 10; inactive = the rest.
A correct response names exactly one class from class 1 for active, class 0 for inactive

Record excerpt, results attached:
Each molecule tested received a call. Report the one for Cc1cc2c(-c3nc4ccccn4c3NC3CCCCC3)c(O)c(O)cc2c(O)c1-c1c(C)cc2c(-c3nc4ccccn4c3NC3CCCCC3)c(O)c(O)cc2c1O . class 0

Each molecule tested received a call. Report the one for CN(C)C1CCN(C(=O)c2ccc(NC(=O)Nc3ccc(-c4nc(N5CCOCC5)nc(N5CCOCC5)n4)cc3)cc2)CC1 . class 1

Okay, next one:
Each molecule tested received a call. Report the one for CCN(CC)CCN1C(=O)c2cccc3c(-c4ccc5c(c4)ncn5C4CCCCC4)ccc(c23)C1=O . class 1

* * *

- Test system: RPMI-8226 leukemia
- Assay Text: NCI-60 one-dose screen, 48 h
- Study Conditions: 10 µM unless noted
This is part of a sample that, as a whole, favours compounds with a hit. Of some 83,000 tested, about 20% had one in any assay. The source made the active and inactive calls. The calls were made as follows: active = growth percent below 10; inactive = the rest.
A correct response names exactly one class from True (active), False (inactive)

Record excerpt, results attached:
Each compound tested received a call. Report the one for O=C(Nc1cnn2ccc(N3CCC[C@@H]3c3cc(F)ccc3F)nc12)N1CC[C@H](O)C1 . False

Each compound tested received a call. Report the one for CN[C@@H]1C[C@H]2O[C@@](C)([C@@H]1OC)n1c3ccccc3c3c4c(c5c6ccccc6n2c5c31)C(=O)N[C@H]4O . True

Each compound tested received a call. Report the one for CC(C)(C)OC(=O)N1CCC(O)[C@@H](O[Si](c2ccccc2)(c2ccccc2)C(C)(C)C)[C@H]1/C=C/c1ccccc1 (some centres not stated) . False

Each compound tested received a call. Report the one for CCS(=O)(=O)N1CCN(c2ccc(Nc3ncc(C(N)=O)c(NC4CC4)n3)cc2)CC1 . False

Each compound tested received a call. Report the one for Cn1ccnc1C(=O)/C=C/c1ccc(CC(=O)Nc2ccc(S(F)(F)(F)(F)F)cc2)cc1 . True

Each compound tested received a call. Report the one for Cc1nc2ccc(-n3ncc(C(=O)c4cc5ccccc5[nH]4)c3N)cc2[nH]1 . False

Each compound tested received a call. Report the one for Cc1cc(C2(c3ccc(O)c(C)c3)OS(=O)(=O)c3ccccc32)ccc1O . False

Each compound tested received a call. Report the one for COc1ccc(-c2nocc2-c2cc(OC)c(OC)c(OC)c2)cc1 . False

Continuing:
Each compound tested received a call. Report the one for COc1cc(-c2cc(-c3ccc(Nc4ccnc5cc(Cl)ccc45)cc3)nc(N3CCOCC3)n2)cc(OC)c1OC . True

Each compound tested received a call. Report the one for CNC(=O)c1cnc(C)nc1-c1cc(C(C)(C)C)c(O)c(C(C)(C)C)c1 . False

Each compound tested received a call. Report the one for COC(=O)[C@]12CC[C@@H](C)[C@H](C)[C@@H]1C1=CC[C@@H]3[C@@]4(C)C(C=O)=C[C@@](C)(COS(C)(=O)=O)C4=CC[C@@]3(C)[C@]1(C)CC2 . True

Each compound tested received a call. Report the one for CC(N)C(Cc1ccc(Cl)cc1)c1ccc(Cl)cc1 (configuration not stated) . False

* * *

- Tested on: SF-268 CNS
- Assay Text: NCI-60 one-dose screen, 48 h (100 = growth as untreated, 0 = no growth, -100 = all killed)
- Study Conditions: 10 µM unless noted
This is part of a sample that, as a whole, favours compounds with a hit. Of some 83,000 tested, about 20% had one in any assay.
Hi there, I'd appreciate the recorded growth for every entry that follows.
Numbers only, in %.

These solved cases illustrate the format of a correct answer.
CCCCCCCCCCCC[n+]1ccccc1 yielded growth of 11.5

COc1cc2nc(Nc3cccc(Cl)c3)nc(N)c2cc1OC yielded growth of 77.1

C=CCn1c(=O)c2cnc(Nc3ccc(N4CCN(C)CC4)cc3)nc2n1-c1cccc(C(C)(C)O)n1 yielded growth of 30.7

Cc1cc(C2(c3ccc(O)c(C)c3)OS(=O)(=O)c3ccccc32)ccc1O yielded growth of 112

O=C(Cc1ccc(/C=C/C(=O)c2ncc[nH]2)cc1)Nc1ccc(S(F)(F)(F)(F)F)cc1 yielded growth of 80

Cc1cc(Oc2ccccc2)ccc1Nc1ncnc2ccc(-c3cnc(Cl)c(NS(C)(=O)=O)c3)cc12 yielded growth of 35.4

COc1cc2cc(NCc3ccc(Cl)cc3)nc(C)c2cc1OC yielded growth of 43.7

COc1ccc(Cl)c(Nc2nc3ccccc3nc2NS(=O)(=O)c2cccc(NC(=O)C(C)(C)N)c2)c1 yielded growth of 49.8

Please state growth for every molecule in the list that follows.
1. COc1cc(N2CCC(N3CCN(C)CC3)CC2)ccc1Nc1ncnc(Nc2ccccc2S(=O)(=O)C(C)C)n1
2. Nc1nc(N)c2cc(CNc3ccc(C(=O)NC(CC(=O)O)C(=O)O)cc3)ccc2n1 (stereo not given)
3. COc1cc(Nc2ncc(F)c(Nc3ccc4c(n3)N(COP(=O)(O)O)C(=O)C(C)(C)O4)n2)cc(OC)c1OC
4. O=C(Cc1ccc(/C=C/C(=O)c2ncc[nH]2)cc1)Nc1ccc(Br)cc1
5. CC(C)(C)c1nc(-c2cccc(NS(=O)(=O)c3c(F)cccc3F)c2F)c(-c2ccnc(N)n2)s1

100
29.7
7.3
22.2
105

* * *

- System: SK-MEL-28 melanoma
- Assay Text: NCI-60 one-dose screen, 48 h (100 = growth as untreated, 0 = no growth, -100 = all killed)
- Study Conditions: 10 µM unless noted
- Method: Growth inhibition of the SK-MEL-28 human tumor cell line is measured as a screen for anti-cancer activity. Cells are grown in 96 well plates and exposed to the test compound for 48 hours. Compounds are tested at a single concentration, which is 10^-5 M for most compounds. The reported endpoint is percent growth (GI% or GIPRCNT), where numbers from 0 - 100% represent growth inhibition, and numbers from -100% - 0 represent cell death. For example, a value of 40 represents 60% growth inhibition. […]
The panel holds about 83,000 compounds, 20% with a hit somewhere; the sample as a whole holds those more often.
Quantity Measured: growth (%)
One number for each entry, in %.

These solved cases illustrate the format of a correct answer.
CCC1(/C=N/NC(N)=S)NC(=O)NC1=O (configuration not stated) yielded growth of 111

C#Cc1cccc(Nc2ncnc3cc(OC)c(OCCCCCCC(=O)NO)cc23)c1 yielded growth of -29.5

COc1cc(Nc2c(C#N)cnc3cc(OCCCN4CCN(C)CC4)c(OC)cc23)c(Cl)cc1Cl yielded growth of 19.3

COc1cc2c(cc1OCCCN1Cc3ccc(OCCCCC(=O)N4CCC(CCN5CCCC5)CC4)cc3C1)N=C(N)C21CCCC1 yielded growth of 97.9

Please state growth for every compound in the list that follows.
1. Cc1ccc(Nc2nccc(N(C)c3ccc4c(C)n(C)nc4c3)n2)cc1S(N)(=O)=O
2. O=C1C=CC2(NN=C(c3ccccc3)N2c2cccc(Cl)c2)c2cccc(O)c21 (configuration not stated)

1. 8.83
2. 35.8

Please state growth for every compound in the list that follows.
1. CCN(CCO)CCCOc1ccc2c(Nc3cc(CC(=O)Nc4cccc(F)c4)[nH]n3)ncnc2c1
2. c1ccc2c(c1)CCN(NCCN1CCCC1)C2
3. Cn1nccc1Nc1nccc(-c2ccn([C@H](CO)c3ccc(Cl)c(F)c3)c(=O)c2)n1
4. C=C1C[C@H](O)[C@H](Br)C(C)(C)[C@@]12CCC(C)=C(Cl)C2
5. CCc1nc(C(N)=O)c(Nc2ccc(N3CCC(N4CCN(C)CC4)CC3)c(OC)c2)nc1NC1CCOCC1

1: -6.81; 2: 109; 3: 16.9; 4: 30.1; 5: 24

Please state growth for every compound in the list that follows.
1. O=C(O)c1ccc(Nc2ncc3c(n2)-c2ccc(Cl)cc2C(c2c(F)cccc2F)=NC3)cc1
2. CCN1CCN(CCCN(C[C@H]2Cc3ccccc3CN2)[C@H]2CCCc3cccnc32)CC1
3. CN(C[C@@H]1COCCO1)S(=O)(=O)Nc1ccc2ccc3ncc(-c4cnn(C)c4)cc3c(=O)c2c1
4. COC(=O)[C@@H](NC(=O)[C@@H](OC)[C@@H]1Cc2cc3cc(OC4CC(OC5CC(O)C(O)C(C)O5)C(O)C(C)O4)c(C)c(O)c3c(O)c2C(=O)[C@H]1OC1CC(OC2CC(OC3CC(C)(O)C(O)C(C)O3)C(O)C(C)O2)C(O)C(C)O1)C(C)C (some centres not stated)

1: 75.1; 2: 108; 3: 59.7; 4: -1.86

Please state growth for every compound in the list that follows.
1. COc1cc2cc(NCc3ccc(F)cc3)nc(C)c2cc1OC
2. COc1cccc2cc(-c3nc(C4CCC(C(=O)O)CC4)n4ncnc(N)c34)[nH]c12 (configuration not stated)

1: 35.4; 2: -9.6
